assay: Cytotoxicity upon MRC-5 cells (diploid embryonic lung cell line) at 1 uM; format: cell-based, MRC5; conditions: human
Entries and their cytotoxicity at 1 µM
Quick reminder: number only, in %, skip the unit.

Record excerpt, results attached:
{"columns": ["molecular_string", "cytotoxicity at 1 µM [%]"],
 "data": [
  ["O=C(CN1CCCCC1)Nc1cc(CO)cc(Nc2ccnc3cc(Cl)ccc23)c1", 0],
  ["O=C(CN1CCCCC1)Nc1cc(CN2CCN(CCO)CC2)cc(Nc2ccnc3cc(Cl)ccc23)c1", 0],
  ["O=Cc1cc(NC(=O)CN2CCCCC2)cc(Nc2ccnc3cc(Cl)ccc23)c1", 0],
  ["CC(C)(C)NCc1cc(NC(=O)CN2CCCCC2)cc(Nc2ccnc3cc(Cl)ccc23)c1", 0],
  ["O=C(CN1CCCCC1)Nc1cc(CN2CCN(C(c3ccccc3)c3ccccc3)CC2)cc(Nc2ccnc3cc(Cl)ccc23)c1", 87],
  ["O=C(CN1CCCCC1)Nc1cc(CNCc2ccc(Cl)cc2)cc(Nc2ccnc3cc(Cl)ccc23)c1", 100]
]}

Quick one: cytotoxicity at 1 µM of O=C(CN1CCCCC1)Nc1cc(CN2CCN(Cc3ccc4c(c3)OCO4)CC2)cc(Nc2ccnc3cc(Cl)ccc23)c1 ?
86

GET /values?readout=cytotoxicity at 1 µM&item= COc1ccc(CN2CCN(Cc3cc(NC(=O)CN4CCCCC4)cc(Nc4ccnc5cc(Cl)ccc45)c3)CC2)cc1
50

Record request: cytotoxicity at 1 µM value, item O=C(CN1CCCCC1)Nc1cc(CN2CCCC2)cc(Nc2ccnc3cc(Cl)ccc23)c1
0

I'd like to know its cytotoxicity at 1 µM. The compound in question is O=C(CN1CCCCC1)Nc1cc(CNCc2ccccc2)cc(Nc2ccnc3cc(Cl)ccc23)c1
96

Name the recorded cytotoxicity at 1 µM for O=C(CN1CCCCC1)Nc1cc(CNC(c2ccccc2)c2ccccc2)cc(Nc2ccnc3cc(Cl)ccc23)c1 .
0

Record request: cytotoxicity at 1 µM value, item O=C(CN1CCCCC1)Nc1cc(CN2CCOCC2)cc(Nc2ccnc3cc(Cl)ccc23)c1
0

Given O=C(CN1CCCCC1)Nc1cc(CNCc2ccc(C(F)(F)F)cc2)cc(Nc2ccnc3cc(Cl)ccc23)c1 , state its recorded cytotoxicity at 1 µM.
0

Bench note: what cytotoxicity at 1 µM did O=C(CN1CCCCC1)Nc1cc(CN2CCN(c3ccccc3)CC2)cc(Nc2ccnc3cc(Cl)ccc23)c1 show?
0

Could you tell me which cytotoxicity at 1 µM is on file for CCN(CC)Cc1cc(NC(=O)CN2CCCCC2)cc(Nc2ccnc3cc(Cl)ccc23)c1 ?
0

I have this compound here, O=C(CN1CCCCC1)Nc1cc(CN2CCN(Cc3ccc(Cl)cc3)CC2)cc(Nc2ccnc3cc(Cl)ccc23)c1 , and I need its recorded cytotoxicity at 1 µM.
0

// cytotoxicity at 1 µM lookup, key: O=C(CN1CCCCC1)Nc1cc(CN2CCN(Cc3ccc([N+](=O)[O-])cc3)CC2)cc(Nc2ccnc3cc(Cl)ccc23)c1
0

Dear colleague, I am looking for the recorded cytotoxicity at 1 µM of the following compound: CN(C)CCNCc1cc(NC(=O)CN2CCCCC2)cc(Nc2ccnc3cc(Cl)ccc23)c1
0

What does the record list as cytotoxicity at 1 µM for O=C(CN1CCCCC1)Nc1cc(CN2CCC(O)CC2)cc(Nc2ccnc3cc(Cl)ccc23)c1 ?
0

Reported cytotoxicity at 1 µM, compound COc1ccc(CNCc2cc(NC(=O)CN3CCCCC3)cc(Nc3ccnc4cc(Cl)ccc34)c2)cc1 : ____
100

For CN(C)CCN(C)Cc1cc(NC(=O)CN2CCCCC2)cc(Nc2ccnc3cc(Cl)ccc23)c1 , what is its reported cytotoxicity at 1 µM?
43

Value source: ChEMBL document CHEMBL1134569
